# Tested on: Escherichia coli TOP10
# assayProtocol: shrunken log2 fold change of peptide-encoding DNA abundance (4.5 h post-induction vs induction); higher = less antimicrobial activity (less host growth inhibition)
# experimentalContext: time post-induction: 4.5 h; library: site-saturation at positions 5, 18, 19, 20
Output MET for shrunken log2 fold change not less than 0.03; output NOT MET otherwise.

seqText	qualitativeLabel
RRIRERPPRLPRPRPRPYWQPRP	NOT MET
RRIRVRPPRLPRPRPRPGQVPRP	MET
RRIRLRPPRLPRPRPRPGMMPRP	MET
RRIRARPPRLPRPRPRPTGPPRP	MET
RRIRFRPPRLPRPRPRPCEYPRP	NOT MET
RRIRARPPRLPRPRPRPGTAPRP	MET
RRIRYRPPRLPRPRPRPGLFPRP	NOT MET
RRIRERPPRLPRPRPRPLYVPRP	NOT MET
RRIRNRPPRLPRPRPRPLLMPRP	NOT MET
RRIRCRPPRLPRPRPRPRAAPRP	MET
RRIRLRPPRLPRPRPRPPVQPRP	MET
RRIRERPPRLPRPRPRPKPVPRP	MET
RRIRQRPPRLPRPRPRPETLPRP	NOT MET
RRIRIRPPRLPRPRPRPECIPRP	NOT MET
RRIRARPPRLPRPRPRPTFTPRP	MET
RRIRSRPPRLPRPRPRPPWAPRP	MET
RRIRFRPPRLPRPRPRPGAIPRP	NOT MET
RRIRCRPPRLPRPRPRPTLDPRP	MET
RRIRWRPPRLPRPRPRPILEPRP	NOT MET
RRIRSRPPRLPRPRPRPAHYPRP	NOT MET
RRIRIRPPRLPRPRPRPSNNPRP	NOT MET
RRIRYRPPRLPRPRPRPNWLPRP	NOT MET
RRIRTRPPRLPRPRPRPQGEPRP	NOT MET
RRIRLRPPRLPRPRPRPHMVPRP	NOT MET
RRIRPRPPRLPRPRPRPMSVPRP	MET
RRIRRRPPRLPRPRPRPYTQPRP	NOT MET

----------
# Tested on: Escherichia coli TOP10;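 further: peptides expressed intracellularly from a pBAD plasmid library in pooled LB shake-flask culture, induced with 0.3% L-arabinose, DNA abundance read by NGS, three biological replicates, DESeq2 with apeglm shrinkage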
# assayProtocol: shrunken log2 fold change of peptide-encoding DNA abundance (4.5 h post-induction vs induction); higher = less antimicrobial activity (less host growth inhibition)
# experimentalContext: time post-induction: 4.5 h; library: site-saturation at positions 5, 18, 19, 20
Output 1 (yes) for shrunken log2 fold change not less than 0.04; output 0 (no) otherwise.

seqText	qualitativeLabel
RRIRERPPRLPRPRPRPNYQPRP	0 (no)
RRIRDRPPRLPRPRPRPHRNPRP	0 (no)
RRIRFRPPRLPRPRPRPQIGPRP	0 (no)
RRIRTRPPRLPRPRPRPYWDPRP	0 (no)
RRIRMRPPRLPRPRPRPWMTPRP	1 (yes)
RRIRRRPPRLPRPRPRPIVRPRP	1 (yes)
RRIRVRPPRLPRPRPRPVAVPRP	0 (no)
RRIRFRPPRLPRPRPRPKWFPRP	1 (yes)
RRIRSRPPRLPRPRPRPRPAPRP	1 (yes)
RRIRNRPPRLPRPRPRPDNAPRP	0 (no)
RRIRNRPPRLPRPRPRPSIKPRP	0 (no)
RRIRDRPPRLPRPRPRPSVSPRP	0 (no)
RRIRFRPPRLPRPRPRPSQSPRP	0 (no)
RRIRARPPRLPRPRPRPKQMPRP	1 (yes)
RRIRRRPPRLPRPRPRPLIAPRP	1 (yes)
RRIRERPPRLPRPRPRPKYCPRP	0 (no)
RRIRSRPPRLPRPRPRPCLMPRP	0 (no)
RRIRIRPPRLPRPRPRPVRAPRP	1 (yes)
RRIRARPPRLPRPRPRPDEKPRP	1 (yes)
RRIRGRPPRLPRPRPRPICMPRP	1 (yes)
RRIRVRPPRLPRPRPRPHLNPRP	0 (no)
RRIRERPPRLPRPRPRPWLDPRP	1 (yes)
RRIRNRPPRLPRPRPRPPCAPRP	0 (no)
RRIRTRPPRLPRPRPRPQHRPRP	0 (no)
RRIRERPPRLPRPRPRPAFAPRP	1 (yes)
RRIRQRPPRLPRPRPRPLDEPRP	1 (yes)
RRIRVRPPRLPRPRPRPRGEPRP	1 (yes)
RRIRPRPPRLPRPRPRPKVVPRP	1 (yes)
RRIRQRPPRLPRPRPRPVWAPRP	0 (no)
RRIRMRPPRLPRPRPRPHETPRP	0 (no)
RRIRHRPPRLPRPRPRPTRMPRP	1 (yes)
RRIRERPPRLPRPRPRPDPFPRP	0 (no)
RRIRWRPPRLPRPRPRPFSCPRP	0 (no)
RRIRIRPPRLPRPRPRPHKPPRP	0 (no)
RRIRCRPPRLPRPRPRPIYLPRP	0 (no)
RRIRGRPPRLPRPRPRPIWDPRP	1 (yes)
RRIRGRPPRLPRPRPRPIRGPRP	1 (yes)
RRIRFRPPRLPRPRPRPYCAPRP	0 (no)
RRIRARPPRLPRPRPRPVKYPRP	0 (no)
RRIRTRPPRLPRPRPRPNVIPRP	0 (no)
RRIRVRPPRLPRPRPRPGQNPRP	0 (no)
RRIRMRPPRLPRPRPRPSIRPRP	1 (yes)
RRIRMRPPRLPRPRPRPNEDPRP	1 (yes)
RRIRNRPPRLPRPRPRPIRHPRP	0 (no)
RRIRYRPPRLPRPRPRPVVLPRP	0 (no)
RRIRLRPPRLPRPRPRPSFHPRP	0 (no)
